- Tested on: SR leukemia
- methodNotes: NCI tumour cell line growth inhibition, 48 h; in the data active = GI50 below about 0.43 µM; inactive = the rest
Please state which outcome applies, choosing from active, inactive

Please indicate how the test categorized CC(=O)[CH-]C(C)=O.CC(=O)[CH-]C(C)=O.[CH2-]CCCCCCC.[CH2-]CCCCCCC.[Sn+4] .
inactive

Please indicate how the test categorized Cc1ccc(-c2cc(C(=O)N3N=C(c4ccc(N)cc4)CC3c3ccc(Cl)cc3)c3ccccc3n2)cc1 (stereo not drawn) .
inactive

Please indicate how the test categorized COc1ccc2nc3cc(Cl)ccc3c(NCCCCCN3CCCCC3)c2c1 .
active

Please indicate how the test categorized NC(=O)c1cccc(N2Cc3ccccc3OC3=C2C(=O)c2c(O)ccc(O)c2C3=O)c1 .
active

Please indicate how the test categorized COc1cccc2c1-c1ccccc1C2=O .
inactive

Please indicate how the test categorized COc1cc(O)c2c(=O)c(OC)c(-c3ccc(OC)c(OC)c3)oc2c1.[Co] .
inactive

Please indicate how the test categorized C[C@@]1(CO)[C@H](O)CC[C@@]2(C)[C@H]1CC[C@H]1C[C@@H]3C[C@@]12CC[C@@]3(O)COC(=O)CN .
inactive

Please indicate how the test categorized COc1ccc(/C=C/C(=O)c2cccc(B(O)O)c2)cc1O .
inactive

Please indicate how the test categorized COc1ccc(/C=N/C2=C(C#N)C(c3ccccc3)c3c(ccc4ccccc34)O2)cc1 (stereo not drawn) .
inactive

Please indicate how the test categorized C[C@@H](O)[C@H]1C(=O)N2C(C(=O)O)=C(SCCN=CN)C[C@H]12 .
inactive

Please indicate how the test categorized O=C1c2ccccc2C(=O)c2c(N=Nc3[nH]c(=S)[nH]c3O)cccc21 .
inactive

Please indicate how the test categorized CCN(CC)c1ccc(/C=C2\SC(=O)C(Nc3nnc(-c4cccnc4SCc4ccccc4)o3)C2=O)cc1 (stereo not drawn) .
inactive

Please indicate how the test categorized Cn1cc(C2=C(c3cn(CCCO)c4ccccc34)C(=O)NC2=O)c2ccccc21 .
inactive

###

- Test system: SK-MEL-2 melanoma
- methodNotes: NCI tumour cell line growth inhibition, 48 h
Would you mind telling me the reported TGI of each entry?

Report TGI for CC1CCC2(NC1)OC1CC3C4CCC5CC(OC6OC(CO)C(OC7OC(CO)C(O)C(OC8OCC(O)C(O)C8O)C7OC7OC(CO)C(O)C(O)C7O)C(O)C6O)CCC5(C)C4CCC3(C)C1C2C (stereo not given) please.
3.75 µM

Report TGI for Nc1nc2c(nc(N)n2Cc2ccccc2)c(=O)[nH]1 please.
> 100 µM

Report TGI for Cc1c2cnccc2c(C)c2c1c1cc(CO)ccc1n2C please.
2.01 µM

Report TGI for COC1CC(C)(N)C(O)C(C)O1 (stereo not given) please.
> 100 µM

Report TGI for Cc1cccc(C)c1NC(=O)CCC(=O)CC(=O)C(C)C please.
> 100 µM

Report TGI for O=c1[nH]nc(Cc2ccccc2)n1/N=C\CC/C=N\n1c(Cc2ccccc2)n[nH]c1=O please.
90.3 µM

Report TGI for COc1ccc(NC(=O)C2C(=O)N(c3ccc(OC)cc3)C(=O)/C2=N\N)cc1 (stereo not given) please.
> 100 µM

Report TGI for COC(=O)C1CC2C=CC1N(C(=O)OCc1ccccc1)C2 (stereo not given) please.
> 100 µM

Report TGI for COc1ccc(-c2cc(-c3ccc(Nc4ccnc5cc(C(F)(F)F)ccc45)cc3)nc(N)c2C#N)cc1 please.
> 100 µM

Report TGI for Cc1ccc(C2=C(c3ccc(C)cc3)C3(c4ccc(C)cc4)[C@@H](C#N)[C@H](C#N)C2(c2ccc(C)cc2)S3=O)cc1 (stereo not given in full) please.
> 100 µM

Report TGI for COC(=O)C(N)CSC(c1ccccc1)(c1ccccc1)c1ccccc1 (stereo not given) please.
5.72 µM

Report TGI for O=C(C[Si](CC(=O)c1cccc(C(F)(F)F)c1)CC(=O)c1cccc(C(F)(F)F)c1)c1cccc(C(F)(F)F)c1 please.
5.29 µM

Report TGI for c1ccc2c(c1)SC1=Nc3sc4ccccc4[n+]3CN12 please.
28.7 µM

Report TGI for C=CCC12CC(=O)CCC1CC(=O)C2 (stereo not given) please.
> 100 µM

Report TGI for C[C@@H](O)[C@H]1C(=O)N2C(C(=O)O)=C(SCCN=CN)C[C@H]12 please.
7.7 µM

Report TGI for COc1ccc(/C=C/C(=O)c2sc(NC(=S)NC(=O)c3ccccc3F)nc2C)cc1OC please.
> 100 µM

Report TGI for CCCc1cc(=O)oc2c3c(c4c(c12)OC(C)(C)CC4)O[C@H](C)[C@@H](C)[C@H]3O please.
49.1 µM

Report TGI for CC(=O)[CH-]C(C)=O.CC(=O)[CH-]C(C)=O.[CH2-]CCCCCCC.[CH2-]CCCCCCC.[Sn+4] please.
32 µM

Report TGI for CCCCC#COS(=O)(=O)c1ccc(C)cc1 please.
> 100 µM

Report TGI for CN(C)CCCN1c2ccccc2CCc2cccc([N+](=O)[O-])c21 please.
65.6 µM
